# assay.target: UniProt:Q05397
# Sequence (Q05397 whole entry, the tested form may be a part): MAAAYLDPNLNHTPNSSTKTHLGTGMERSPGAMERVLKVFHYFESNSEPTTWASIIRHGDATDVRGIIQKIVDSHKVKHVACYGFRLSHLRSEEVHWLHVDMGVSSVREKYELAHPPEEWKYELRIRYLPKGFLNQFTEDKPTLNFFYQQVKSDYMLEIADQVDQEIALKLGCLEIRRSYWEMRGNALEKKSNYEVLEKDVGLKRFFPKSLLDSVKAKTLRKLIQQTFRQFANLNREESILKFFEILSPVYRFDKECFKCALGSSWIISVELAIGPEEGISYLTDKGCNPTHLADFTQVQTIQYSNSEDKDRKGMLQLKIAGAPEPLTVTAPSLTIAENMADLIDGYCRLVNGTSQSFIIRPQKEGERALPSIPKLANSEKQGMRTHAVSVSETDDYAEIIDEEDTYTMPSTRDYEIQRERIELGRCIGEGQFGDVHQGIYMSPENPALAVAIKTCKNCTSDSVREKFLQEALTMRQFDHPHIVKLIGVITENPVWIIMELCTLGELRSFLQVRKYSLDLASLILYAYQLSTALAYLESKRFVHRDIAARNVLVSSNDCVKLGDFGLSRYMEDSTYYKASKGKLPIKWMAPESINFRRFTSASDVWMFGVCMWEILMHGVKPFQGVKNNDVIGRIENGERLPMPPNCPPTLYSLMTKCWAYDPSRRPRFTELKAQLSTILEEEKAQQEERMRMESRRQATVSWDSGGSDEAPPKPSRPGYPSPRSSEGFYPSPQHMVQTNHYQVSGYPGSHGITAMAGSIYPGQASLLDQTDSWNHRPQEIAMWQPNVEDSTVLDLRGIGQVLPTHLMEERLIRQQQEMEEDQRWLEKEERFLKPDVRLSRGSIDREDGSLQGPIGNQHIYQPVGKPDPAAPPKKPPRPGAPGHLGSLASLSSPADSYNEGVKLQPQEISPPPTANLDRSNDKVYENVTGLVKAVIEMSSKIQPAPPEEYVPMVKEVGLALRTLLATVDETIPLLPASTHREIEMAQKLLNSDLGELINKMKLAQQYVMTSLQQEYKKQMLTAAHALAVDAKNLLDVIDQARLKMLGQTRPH
# assay.explanation: Inhibition of recombinant N-terminal GST-tagged human FAK (327 to 1052 residues) expressed in baculovirus expression system using TK as substrate incubated for 50 mins in presence of ATP and measured after 1 hr by HTRF assay
quantity.kind: pIC50
Interpret pIC50 as the negative base-10 log of the concentration measured in mol/L.

The reported value for `COc1cc(C(=O)NC2CCNCC2)ccc1Nc1nc(Nc2ccccc2P(C)(C)=O)c2cc[nH]c2n1` in terms of pIC50 is 8.27

---

Each item that follows carries a reported IC50.
# Tested on: MDA-MB-231
# assay.explanation: cells
# test.context: Homo sapiens, MDA-MB-231, 72 h
# Description: Antiproliferative activity against human MDA-MB-231 cells assessed as reduction in cell viability after 72 hrs by MTT assay
Use µM as the unit, but write only the number.

Some solved cases for reference:
CNC(=O)c1ccccc1Nc1nc(Nc2ccc(N3CCOCC3)cc2OC)ncc1Cl :: 4.24
CP(C)(=O)c1ccccc1Nc1nc(Nc2cnn(CC(F)F)c2)nc2[nH]ccc12 :: 3.43
CP(C)(=O)c1ccccc1Nc1nc(Nc2ccc(C(=O)NC3CCNCC3)cc2)nc2[nH]ccc12 :: 17.8
COCCn1cc(Nc2nc(Nc3ccccc3P(C)(C)=O)c3cc[nH]c3n2)cn1 :: 8.18
CCNS(=O)(=O)c1ccc(Nc2nc(Nc3ccccc3P(C)(C)=O)c3cc[nH]c3n2)cc1 :: 1.31
CP(C)(=O)c1ccccc1Nc1nc(Nc2ccc(C(=O)N[C@H]3CCCNC3)cc2)nc2[nH]ccc12 :: 12.4

The reported value for `CP(C)(=O)c1ccccc1Nc1nc(Nc2ccc(C(=O)NC3CCNCC3)c(F)c2)nc2[nH]ccc12` in terms of IC50 is 4.17

The reported value for `CP(C)(=O)c1ccccc1Nc1nc(Nc2cnn(C3CCNCC3)c2)nc2[nH]ccc12` in terms of IC50 is 14.1

The reported value for `CP(C)(=O)c1ccccc1Nc1nc(Nc2ccc(C(=O)NC3CCOCC3)cc2)nc2[nH]ccc12` in terms of IC50 is 6.53

The reported value for `CP(C)(=O)c1ccccc1Nc1nc(Nc2cnn(C3CCOCC3)c2)nc2[nH]ccc12` in terms of IC50 is 5.53

The reported value for `CP(C)(=O)c1ccccc1Nc1nc(Nc2ccc(C(=O)N3CCNCC3)cc2)nc2[nH]ccc12` in terms of IC50 is 8.8

The reported value for `CP(C)(=O)c1ccccc1Nc1nc(Nc2ccc(N3CCNCC3)cc2)nc2[nH]ccc12` in terms of IC50 is 4.35

The reported value for `COc1cc(C(=O)NC2CCNCC2)c(F)cc1Nc1nc(Nc2ccccc2P(C)(C)=O)c2cc[nH]c2n1` in terms of IC50 is 11.3

---

# assay.explanation: Intrinsic clearance in rat liver microsomes at 1 uM measured up to 1 hr in presence of NADPH by LC-MS/MS analysis
# Type: ADME, Microsome
# test.context: read-out: CLH
quantity.kind: microsomal CLint at 1 µM

The reported value for `COc1cc(C(=O)NC2CCNCC2)ccc1Nc1nc(Nc2ccccc2P(C)(C)=O)c2cc[nH]c2n1` in terms of microsomal CLint at 1 µM is < 9.6 µL/min/mg

---

# assay.explanation: Half life in mouse liver microsomes at 1 uM measured up to 1 hr by LC-MS/MS analysis
# Assay type: ADME, Microsome
quantity.kind: half-life at 1 µM (min)
Use min as the unit, but write only the number.

The reported value for `COc1cc(C(=O)NC2CCNCC2)ccc1Nc1nc(Nc2ccccc2P(C)(C)=O)c2cc[nH]c2n1` in terms of half-life at 1 µM is 138

---

# assay.explanation: Metabolic stability in human liver microsomes assessed as compound remaining at 1 uM measured up to 1 hr in presence of NADPH by LC-MS/MS analysis
# Format: ADME, Microsome
# test.context: read-out: Stability
quantity.kind: remaining at 1 h, 1 µM (%)
Use % as the unit, but write only the number.

The reported value for `COc1cc(C(=O)NC2CCNCC2)ccc1Nc1nc(Nc2ccccc2P(C)(C)=O)c2cc[nH]c2n1` in terms of remaining at 1 h, 1 µM is 67.9

---

# Tested on: MDA-MB-231
# assay.explanation: cells
# test.context: Homo sapiens, MDA-MB-231, 72 h
quantity.kind: pIC50
Interpret pIC50 as the negative base-10 log of the concentration measured in mol/L.

CP(C)(=O)c1ccccc1Nc1nc(Nc2ccc(C(=O)N3CCOCC3)cc2)nc2[nH]ccc12 :: 4.84
COc1cc(C(=O)NC2CCNCC2)ccc1Nc1nc(Nc2ccccc2P(C)(C)=O)c2cc[nH]c2n1 :: 4.76

Moving on to another compound below.
The reported value for `CNC(=O)c1ccc(Nc2nc(Nc3ccccc3P(C)(C)=O)c3cc[nH]c3n2)cc1` in terms of pIC50 is 5.38

The reported measurements were obtained from ChEMBL document CHEMBL4311976.
